Reference source: patent US7671045B2

Test system: T47D human breast cancer cells
Assay: Alkaline phosphatase assay in human breast cancer cell line T47D
Format: cell-based
Settings: T47D cells, alkaline phosphatase readout, 24 h with test compound, read-out: T47D IC50
RESULT TYPE: IC50 (nM)
Give just the numeric value; nM need not be written.

Solved entries:
(Q) Query (molecule): C=C1CCO[C@]12CC[C@H]1[C@@H]3CCC4=CC(=O)CCC4=C3[C@@H](c3ccc(P(=O)(c4ccc(Cl)cc4)c4ccc(Cl)cc4)cc3)C[C@@]12C [Compound 39] ; field requested: IC50
(A) 20

(Q) # get_value(readout='IC50', item= C=C1CCO[C@]12CC[C@H]1[C@@H]3CCC4=CC(=O)CCC4=C3[C@@H](c3ccc(P(C)(C)=O)cc3)C[C@@]12C [Compound 4] )
(A) 3

(Q) Name the reported IC50 value associated with the molecule CN(C)c1ccc([C@H]2C[C@@]3(C)[C@@H](CC[C@@]3(O)C#CP(=O)(c3ccccc3)c3ccccc3)[C@@H]3CCC4=CC(=O)CCC4=C32)cc1 [Compound 103]
(A) 1.57

(Q) Looking for the measured IC50 of CN(C)c1ccc([C@H]2C[C@@]3(C)[C@@H](CC[C@@]3(O)C#CP(C)(C)=O)[C@@H]3CCC4=CC(=O)CCC4=C32)cc1 [Compound 102] , can you help?
(A) 7.3

(Q) I'd like to know its IC50. The molecule in question is C=C1CCO[C@]12CC[C@H]1[C@@H]3CCC4=CC(=O)CCC4=C3[C@@H](c3ccc(P(=O)(OCC(F)(F)F)OCC(F)(F)F)cc3)C[C@@]12C [Compound 38]
(A) 29.5

More entries:
(Q) Recorded IC50 for C[C@]12C[C@H](c3ccc(P(C)(C)=O)cc3)C3=C4CCC(=O)C=C4CC[C@H]3[C@@H]1CC[C@@]2(O)C(F)(F)C(F)(F)F [Compound 7] , please?
(A) 8.4

(Q) Field request: IC50 | item: CN(C)c1ccc([C@H]2C[C@@]3(C)[C@@H](CC[C@@]3(O)C#CP(=O)(N(C)C)N(C)C)[C@@H]3CCC4=CC(=O)CCC4=C32)cc1 [Compound 106]
(A) 7.53

(Q) Given CN(C)c1ccc([C@H]2C[C@@]3(C)[C@@H](CC[C@@]3(O)C#CP(=O)(N3CCOC3=O)N3OCCC3=O)[C@@H]3CCC4=CC(=O)CCC4=C32)cc1 (stereo partly drawn) [Compound 104] , state its recorded IC50.
(A) 7.25

(Q) Any idea what IC50 was measured for C=C1CCO[C@]12CC[C@H]1[C@@H]3CCC4=CC(=O)CCC4=C3[C@@H](c3ccc(P(=O)(Oc4ccccc4)Oc4ccccc4)cc3)C[C@@]12C [Compound 37] ?
(A) 3.3

###

Tested on: T47D human breast cancer cells
Experiment: Alkaline phosphatase assay in human breast cancer cell line T47D
Format: cell-based
Conditions: T47D cells, alkaline phosphatase readout, 24 h with test compound, read-out: T47D IC50
RESULT TYPE: IC50 (nM)
Answer in nM, number only, no unit symbol.

Some compounds with known IC50 results, for comparison:
(Q) What value of measured IC50 is listed for C=C1CCO[C@]12CC[C@H]1[C@@H]3CCC4=CC(=O)CCC4=C3[C@@H](c3ccc(P4(=O)OCC(C)(C)CO4)cc3)C[C@@]12C ?
(A) 28.7

(Q) // IC50 lookup, key: C=CC[C@]1(O)CC[C@H]2[C@@H]3CCC4=CC(=O)CCC4=C3[C@@H](c3ccc(P(C)(C)=O)cc3)C[C@@]21C
(A) 205

Let us move to another entry and its IC50.
(Q) // query IC50 value for entry C/C=C/C[C@]1(O)CC[C@H]2[C@@H]3CCC4=CC(=O)CCC4=C3[C@@H](c3ccc(P(=O)(c4ccccc4)c4ccccc4)cc3)C[C@@]21C
(A) 660
